PBM binding z-score values, listed per item
- Test system: LXRb homodimer (NR concentration 270 nM)
- experimental_details: PBM binding z-score (relative to random genomic background probes); higher = stronger binding; sequences stand for … in GC…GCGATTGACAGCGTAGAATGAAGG

ACTATTGGTTGAGACGAGGGCAACCGATAGGTTG: 0.0327

What value of PBM binding z-score has been recorded for this entry: ATCTCTAGGTAAAGTTTAGTGAAAGATCGATAGA 0.703

Using the record for ATATGTAGGTTAAGGGCCATTCAGGTTGGTTCGC , report its PBM binding z-score. 0.0829

Return reported PBM binding z-score; argument: CAAACTTGGTCAAAGGTCAAAGTCGAGCCAACCA 2.36

Quick one: PBM binding z-score for ATCTCTAGGTAACAAGTTCAGTCAAAGAGAGGAC ? 0.743

Given GCTGCCAGGTCAACTGATGGTCAGCTAAAGCTCG , state its recorded PBM binding z-score. 0.00556

May I ask what PBM binding z-score has been recorded for CCTAGTTGGTCAAGGTGACACACGCTATAGGTAC ? 0.0749

Would you kindly share the measured PBM binding z-score for CGTCCAAGGTCAGAGAGGTCAGTAAATGCCGAGT ? 0.428

Find the recorded PBM binding z-score belonging to GGAACGAGGGCAAAGTTGATAGCGTCTGTCGACG and report it. -0.56

Would you mind telling me what PBM binding z-score value was observed for GCTGCTAGGTCAGGTTGCTCAGCTAACGGGTACG ? -0.468

Using the record for TCGAATAGGTTAGGGGCATTCAGAATGGCGTCGA , report its PBM binding z-score. 0.0688

Could you tell me which PBM binding z-score is on file for ATATGTAGGTTATTGGGTCATTCAGTTTGCGCAT ? 1.34

// lookup PBM binding z-score for ACTAGTTGGTCAGCTGAGGTCGCACACAATTCGG 0.147

For ACTAGCAGGCCAAGGGTCACACAAGATTAGTCCG , what is its reported PBM binding z-score? -0.147

Need PBM binding z-score of ATATGTAGGTTACATCCTGGTCATTCAGGCTATG , thanks. 0.798

Which value of PBM binding z-score has been reported for CCCGACAGGTGAGAAGGTAACTCAGCCTCGATTA in the records? -0.434

What does the data say about its PBM binding z-score? Entry: TCATATAGGTAAAAGTGAAAGTCGAACGATATGA 0.0543

---

- Test system: PPARg:RXRa 270nM:90nM, anti-RXR (NR concentration 270 nM, RXRa partner concentration 90 nM)
- experimental_details: PBM binding z-score (relative to random genomic background probes); higher = stronger binding; sequences stand for … in GC…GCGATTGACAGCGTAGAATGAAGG
Reported PBM binding z-score values follow for various sequences
The response must contain the number and no unit.

TCTATTAGCTGATTAGGGCAACCGAAACAGCGGA: 1.41
CAAACTAGGTCACCGAGGTCAAAGTCCGTGCGTA: 8.39

// next entry
Name the recorded PBM binding z-score for TCGAGTAGGTTAGTCGGGGCATGCAGCCAACATA . 0.809

---

- Test system: FXR:RXRa (NR concentration 270 nM, RXRa partner concentration 90 nM)
- experimental_details: PBM binding z-score (relative to random genomic background probes); higher = stronger binding; sequences stand for … in GC…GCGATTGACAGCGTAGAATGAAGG
Measured PBM binding z-score, listed per entry for reference.

ACAGACAGGTGATGAAGGTAACCCAGGCTATCAT: -0.0743
ATCTCTAGGTAACACTCAGTTCAGTGAAGAACGC: 0.92
ATCGAAAGATCGAAGGTGAGTATACCCACCCGAA: 0.128
AGAACGAGGGCACGCTGAGTTGATTGCAGAGTAG: 0.793
CGAACTAGGTCAGAATAGGACAGTGAAGGATGAT: 1.39

Find the recorded PBM binding z-score belonging to AGAACGAGGGCACGCTGAGTTAATAGCAGAGTAG and report it. 0.956

---

- Test system: PPARg homodimer (NR concentration 180 nM)
- experimental_details: PBM binding z-score (relative to random genomic background probes); higher = stronger binding; sequences stand for … in GC…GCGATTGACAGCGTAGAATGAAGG
// reported PBM binding z-score for each item listed
# output: bare number, no unit

TCTTGTAGATCAAGCGGGTTAAGAAAGCCTGAGT: -0.174

Can you look up the measured PBM binding z-score of CCTTACGGGTCAAGGTTATGGCACGGGTGGTACG for me? 1.88

Find the recorded PBM binding z-score belonging to ACTATGAGTTGAGACGAGGGCAACCGATAGGTTG and report it. 0.118

Please report the recorded PBM binding z-score for CCGACTGGGGCAGAAAGGTTACCGTACCATCCGG . 0.541

---

- Tested on: RARb:RXRa (NR concentration 270 nM, RXRa partner concentration 90 nM)
- experimental_details: PBM binding z-score (relative to random genomic background probes); higher = stronger binding; sequences stand for … in GC…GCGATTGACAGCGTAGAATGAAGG
Item-by-item account of PBM binding z-score
Could you respond with only the numeric value?

CCAGCTAGGTCAATGGTCAGCTAAAGCAGCTCGC: 3.73
TCTTGTAGAACAACAGGAGGTTAAGAAAGATCGA: 0.469
CATACAGGGTCAGCTAAGCCAGAGTAGGGACGGC: 3.9
TCATATAGGTAAAGGTGAAAGACGAACGATATGA: 1.85
TAGCCTAGGTCATTGGGCCAGCATAGTACGCATC: 3.64

Tell me the measured PBM binding z-score of CGTCCAGGGTCAAGGTCAGTGAAAGAGACTCGAA , please. 5.23

Please look up its PBM binding z-score: CAGCCTAGGTCAGGGCAAGTATAGGAGGAACGTT 3.7

What PBM binding z-score value was documented for this sequence, ATCGAAAGGTCGACGTGAGTATAGAGAAAGGGAA ? 3.82

# PBM binding z-score lookup, item ATCGAAAGGTTGAAGGTGAGTATACCCACCCGAA 1.66

Would you kindly share the measured PBM binding z-score for TGAGACAGGTGAAGGTAACTCAGGTACGCAGTCG ? 0.697

Looking for the measured PBM binding z-score of ACAGACAGGTGAGTGAAGGTACCTCAGCTGGACG , can you help? 0.213

Requested field: PBM binding z-score. Item: CGTCCAAGGTCAACGTCAGTGAAAGAGACTCGAA 5.37

PBM binding z-score for GCTTACCGGTCAAAGGTTATAGCATGAATAGAAT ? 3.59

Recorded PBM binding z-score for AGAACGAGGGCACGCTGAGTAGATAGCAGAGTAG , please? 2.4

Give its PBM binding z-score value. Item: CTCGAAAGGTCGTGCTCAGGTGATTATACCAAAC 3.86

Please look up its PBM binding z-score: ACTAGCAGGCAAAGGGTCACTCAAGATTAGTCCG 3.42

---

- Test system: PPARg DBDmut IVT, anti-PPARg (DBD mutation: PPARg1 K132A/R137A, NR concentration 270 nM)
- experimental_details: PBM binding z-score (relative to random genomic background probes); higher = stronger binding; sequences stand for … in GC…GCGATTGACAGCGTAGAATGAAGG
result_type: PBM binding z-score
API note: the answer field is a bare number with no unit suffix.

Suppose we examine the sequence AGTCAAAGTTCAGGCCGAGGTAACGTAAAGCACG ; what PBM binding z-score value has been reported? 0.000554

Look up PBM binding z-score for this sequence: CCGTGTAGGTTATGGGGCATTCAGGCAACGGTGA -0.904

---

Here the recorded PBM binding z-score is given for each entry.
- Test system: RXRa DBDmut IVT, anti-RXR (DBD mutation: RXRa K156A/R161A, NR concentration 90 nM)
- experimental_details: PBM binding z-score (relative to random genomic background probes); higher = stronger binding; sequences stand for … in GC…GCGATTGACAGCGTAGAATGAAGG

ACTATCAGGCCAAGTTTGGGTCACTCAAACAAAG: 0.348
ACTTACGGGTCGACGAGGTTATAGCACGCGTATA: 1.2
GTACCAAGGAGAATAGGTCGTTGATGAGTAGGCG: -0.343

What measured PBM binding z-score goes with ATCTCTAGGTAAAAGTTCAGGGAATCCCGAGGAT ? 0.858

Request the reported PBM binding z-score associated with CCTTACGGGTCAATGACAGGTTATAGCATTTGGA 1.9

Look up PBM binding z-score for this sequence: GCTGGTTGGTCAGTAAAAGGTCACACACCGGTCG 0.18

Please report the recorded PBM binding z-score for TAGCCTAGGTCATGGGCTAGTATACCACGCGAAC . -0.132
